All values here come from patent US20260258054A1.

- System: SNU-175 cells (GNAS^R201C)
- ASSAY_PROCEDURE: Incucyte viability (confluence), SNU-175 cells
- Type: cell-based, human
- RUN_CONDITIONS: Homo sapiens, read-out: IC50 in viability assay
QUANTITY: pIC50
Value format note: pIC50 is -log10 of concentration (mol/L); just state the number.

pIC50 lookup needed for CCC(CC)COC(=O)[C@H](C)NP(=O)(OC[C@H]1O[C@@H](n2cnc3c(=O)[nH]c(N)nc32)[C@@H]2O[C@@H]21)Oc1ccccc1 (stereo partly shown) , thanks.
3.98
